The reported numbers originate from patent US20240327534A1.

Quick list: Kd per entry.
Biological target: T1, human BCMA protein (human, UniProt Q02223 1-54, limits assumed)
T1 sequence: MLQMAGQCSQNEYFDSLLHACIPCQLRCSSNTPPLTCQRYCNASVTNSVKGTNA
Test: affinity to human BCMA protein, method not stated
Give the quantity in nM, number only.

[
  {
    "binder": "BCMA targeting trispecific protein 01B12 (other, not shown: large carriers; small tags and cut ends, trispecific) VHH: EVQLVESGGGLVQPGRSLTLSCAASTNIFSTSPMGWYRQAPGKQRELVAAIHGFQTLYADSVKGRFTISRDNAKNSIYLQMNSLRPEDTALYYCNKVPWGDYHPRNVVWGQGTQVTVSS",
    "Kd [nM]": 20.7
  },
  {
    "binder": "BCMA targeting trispecific protein 01D06 (other, trispecific; not shown: anti-albumin domain, anti-CD3 domain and the linkers of the trispecific (TriTAC) format) VHH: EVQLVESGGGLVQPGRSLTLSCAASTNIFSRSPMGWYRQAPGKQRELVAAIHGDSTLYADSVKGRFTISRDNAKNSIYLQMNSLRPEDTALYYCNKVPWGDYHPRNVTWGQGTQVTVSS",
    "Kd [nM]": 14.9
  },
  {
    "binder": "BCMA targeting trispecific protein 01C04 (other, trispecific; not shown: anti-albumin domain, anti-CD3 domain and the linkers of the trispecific (TriTAC) chain; the C-terminal 6xHis tag follows these missing domains and is left out) VHH: EVQLVESGGGLVQPGRSLTLSCAASTNIPSISPMGWYRQAPGKQRELVAAIHGDSTLYADSVKGRFTISRDNAKNSIYLQMNSLRPEDTALYYCNKVPWGDYHPRNVYWGQGTQVTVSS",
    "Kd [nM]": 21.6
  }
]

Next, consider the following binder.
response.value for BCMA targeting trispecific protein 01A04 (other, not shown: large carriers; small tags and cut ends, trispecific) VHH: EVQLVESGGGLVQPGRSLTLSCAASTNIFMISPMGWYRQAPGKQRELVAAIHGDSTLYADSVKGRFTISRDNAKNSIYLQMNSLRPEDTALYYCNKVPWGRYHPRNVYWGQGTQVTVSS (field: Kd) = 37.5
